# Tested on: 769-P
# assayOverview: minimum viability across doses, drug + dasatinib, relative to DMSO (fraction); higher = less growth inhibition
# condition: treatment: drug + dasatinib (fixed dose, not stated); 5 days
minimum viability across doses less than 0.06 is MET; minimum viability across doses greater than or equal to 0.06 is NOT MET.

Reference set (5 entries):
CCc1cc2c(cc1N1CCC(N3CCOCC3)CC1)C(C)(C)c1[nH]c3cc(C#N)ccc3c1C2=O + Cc1nc(Nc2ncc(C(=O)Nc3c(C)cccc3Cl)s2)cc(N2CCN(CCO)CC2)n1
NOT MET
CC[C@@H]1C(=O)N(C)c2cnc(Nc3ccc(C(=O)N[C@H]4CC[C@H](N5CCN(CC6CC6)CC5)CC4)cc3OC)nc2N1C(C)C [BI6727 (Volasertib)] + Cc1nc(Nc2ncc(C(=O)Nc3c(C)cccc3Cl)s2)cc(N2CCN(CCO)CC2)n1
MET
O=C(NCCCNc1nc(Nc2cccc(NC(=O)N3CCCC3)c2)ncc1I)c1cccs1 [BX-795] + Cc1nc(Nc2ncc(C(=O)Nc3c(C)cccc3Cl)s2)cc(N2CCN(CCO)CC2)n1
NOT MET
CCOc1cc2ncc(C#N)c(Nc3ccc(F)c(Cl)c3)c2cc1NC(=O)/C=C/CN(C)C [Pelitinib (EKB-569)] + Cc1nc(Nc2ncc(C(=O)Nc3c(C)cccc3Cl)s2)cc(N2CCN(CCO)CC2)n1
MET
CCCCCCCCCCCCc1ccc(S(=O)(=O)Nc2nncs2)cc1 [PHT-427] + Cc1nc(Nc2ncc(C(=O)Nc3c(C)cccc3Cl)s2)cc(N2CCN(CCO)CC2)n1
NOT MET

Determine whether this molecule shows minimum viability across doses lower than 0.06 (ties excluded): CC(C)CC(=O)Nc1n[nH]c2c1CN(C(=O)C1CCN(C)CC1)C2(C)C + Cc1nc(Nc2ncc(C(=O)Nc3c(C)cccc3Cl)s2)cc(N2CCN(CCO)CC2)n1
NOT MET

Determine whether this molecule shows minimum viability across doses lower than 0.06 (ties excluded): CCn1c(N)c(C(=O)NC)c(=O)c2ccc(C#C[C@@](C)(O)COC)nc21 + Cc1nc(Nc2ncc(C(=O)Nc3c(C)cccc3Cl)s2)cc(N2CCN(CCO)CC2)n1
NOT MET

Determine whether this molecule shows minimum viability across doses lower than 0.06 (ties excluded): FC(F)(F)c1ccc(/C=C/c2nc(COc3ccc(CCCCn4ccnn4)cc3)co2)cc1 [Mubritinib (TAK 165)] + Cc1nc(Nc2ncc(C(=O)Nc3c(C)cccc3Cl)s2)cc(N2CCN(CCO)CC2)n1
NOT MET
